Reference source: the nanobody polyreactivity screen of Harvey et al. (2022)

- protocolDetails: yeast display, Sf9 membrane polyspecificity reagent, FACS + sequencing; frameworks hold sequencing errors
outcomeMeasure: polyreactivity (PSR sort gate)

Would you please look over these solved cases?
QVQLVESGGGLVQAGGSLRLSCAASGSTFHVNAMGWYRQAPGKEREFVAAISWRTGSTYYADSVKGRFTISRDNAKNTVYLQMNSLKPEDTAVYYCAAKRSYSNYDYWGQGTQVTVSS ... high polyreactivity
QVQLVESGGGLVLAGGSLRLSCAASGSIFGGYAMGWYRPAPGKERELVAAISSGDSTYYADSVKGRFTISRDNAKNTVYLQINSLKPEDTAVYYCAAAFFARDRKRYNYWGQGTQVTVSS ... high polyreactivity
QVQLVESGGGLVQAGGSLRLSCAASGRIFYYYAMGGYRQAPWKERELVATISRAGITNYADSVKGRFTISRANAKNTVYLQMNSLKPEDTAVYYCAATFYPWRYHYEYWGQGTQVTVSS ... high polyreactivity
QVQLVESGGGLVQAGGSLRLSCAASGSIFLGNALGWYRQAPGKERELVAAISRSGGRTYYADSVKGRFTISRDNAKNTVYLQMNSLKPEDTAVYYCAARSYGIYYAKEFYYWGQGTQVTVSS ... high polyreactivity
QVQLVESGGGLVQAGGRLRLSCAASGFTFLDYAMGWYRQAPGKERELVASISSSGGSTRFADSVKGRFTISRDNAKNTVYLQMNSLKPEDTAVYYCNADVDLFGAAYGYDYWGQGTQVTVSS ... low polyreactivity
QVQLVESGGGLVQAGGSLRLSCAASGITPDYAMGWYRQAPGKERELVAAITWSGGRTYYADSVKGRFTISRDNAKNTVYLQMNSLKPEDTAVYYCAAEHYLGYDYWGQGTQVTVSS ... low polyreactivity
PVQLVESWGGLDQAGGSLRLICAPSGSIFSVYAMGWYRQAPGKERELVAAISWSGGSTYYADSVKGRFTISRDNAKNTVYLQLNSLKPEDTAVYYCNAKHLPRHRDYWGQGTQVTVSS ... low polyreactivity
QVQLVESGGGLVQAGGSLRLSCAASGFIIKWYAMGWYRQAPGKERELLAAISIDGGSTYYADSVKGRFTISRDNAKNTVYLQMNSLLPEDTAVYYCNAGYNGTQYLTRDYGLGMDYWGLGTQVTVSS ... low polyreactivity

Field: polyreactivity (PSR sort gate). Fill in for each record below.
1. QVQLVESGGGLVQAGGSLRLSCAASGIILPYYAMGWYRQAPGKERELVASISQSGSSTYYADSVKGRFTISRDNAKNTVYLQMNSLKPEDTAVYYCNAKPGSWYIRYDYWGQGTQVTVSS
2. QVQLVESGGCLVQAGGSLRLSSPASGITFPDYDMGWYRQAPGKERELVAAITYRSGSTYYADSVKGRFTISRDNAKNTVYFQMNSLKPEDTAVYYCAAKRFLLRYYTKQYNYWGQGTQVTVSS
3. QVQLVESGGGIVQAGGSLPLSCAASGSTYNSYAMGWYRQAPGKDRELVAGISYIGGRTYYADSVKGRFTISRDNAKNTVYLQMNSLKPEDTAVYYCAAVYWYGRRKYYSWGQGTQVTVSS
4. QVQLVESGGGLVQAGGSLRLICAASGFIFSTYAMGWYRQAPGKERELVAAISWSGGRTNYADSVKGRFTISRDNAKNTVYLQMNSLKPEDTAVYYCARYGHSGRQYKYDYWGQGTQVTVSS
5. QDQLVESGGGLVQAGGSLRLSCASSGYIFYYNAMGWYRQAPGKEWELVAAITGDSGTYYADSVKGRFTISRDNAKNTFYFQMNCLKPEDTAVYYCNAYTFYQYYRWYVYWGQVTQVTVSS
6. QVQLVESGGGLVQAGGSLRLSCAPSGLTYRRYTMGWYRQAPGKEREFVAAISWGGDSTYYADSVKGRFTISRDNAKNTVYLQLTSLKPEDTAVYYCAADFLYIYNYWGQGTQVTVSS
7. QVQLVETGGGLVQAGGSLRLSCASSGFIFVRYAMGWYRQAPGKERELVAAITKGGGRTYYADSVKGRFTISRDNAKNTVYLQMNSLKPEDTAVYYCATAGAHGRERDYWGQGTQVTVSS

OUT:
1: low polyreactivity; 2: high polyreactivity; 3: high polyreactivity; 4: high polyreactivity; 5: low polyreactivity; 6: high polyreactivity; 7: high polyreactivity
